assay: Binding affinity to recombinant human CypD K175I mutant (44 to 207 residues) expressed in Escherichia coli cells assessed as dissociation constant by SPR analysis
Friendly reminder: Kd below 200 µM is condition met, at or above is condition not met.

Just wondering, is Kd of O=C(O)CN1C(=O)[C@@H]2[C@@H]3CC[C@@H](C3)[C@@H]2C1=O below 200 µM? condition not met

Would you kindly verify if Kd of CSc1ccccc1[C@H]1CCCN1C(=O)C(=O)NCc1ccc2c(c1)[C@H]1C[C@@H](N2)[C@H](O)CO1 is strictly less than 200 µM? condition met

# strict comparison: is reported Kd < 200 µM? input = O=C(NCc1ccc2c(c1)[C@H]1C[C@@H](N2)[C@H](O)CO1)C(=O)N1CCCC1 condition not met

Report whether reported Kd is lower than 200 µM (strictly) for O=C(CN1C(=O)[C@@H]2[C@H]3CC[C@H](C3)[C@@H]2C1=O)NCc1ccc2c(c1)[C@H]1C[C@@H](N2)[C@H](O)CO1 condition met

Is it true that Kd reported for CCN1Cc2cc(NC(=O)CN3C(=O)C4C(C3=O)[C@H]3CC[C@@H]4C3)ccc2NCCC1=O (some centres not stated) is less than 200 µM? condition not met

I wonder whether CSc1ccccc1[C@H]1CCCN1C(=O)CNC(=O)CCc1ccc2c(c1)[C@@H]1C[C@H](N2)[C@H](O)CO1 has Kd below 200 µM. Can you tell? condition met

Given the entry CCN1Cc2cc(CNC(=O)NCC(=O)N3CCC[C@@H]3c3ccccc3SC)ccc2NCCC1=O , would its reported Kd be below 200 µM? condition met

In the record for O=C(NCc1ccc2c(c1)[C@@H]1C[C@H](N2)[C@H](O)CO1)C(=O)N1CCCC1 , is Kd less than 200 µM? condition not met

Please state whether Kd is below 200 µM for CCn1nnc(NC(=O)c2ccccc2)n1 condition not met

# check: Kd < 200 µM for O=C(CN1C(=O)[C@@H]2[C@@H]3CC[C@@H](C3)[C@@H]2C1=O)NCc1ccc2c(c1)[C@H]1C[C@@H](N2)[C@H](O)CO1 condition met

Consider the molecule CSc1ccccc1[C@@H]1CCCN1C(=O)C(=O)NCc1ccc2c(c1)[C@H]1C[C@@H](N2)[C@H](O)CO1 . Is its Kd strictly less than 200 µM? condition not met

Below 200 µM on Kd? Entry O=C(NCc1ccccn1)C(=O)NC1CCCC1 condition not met

Quick check: does Cc1onc(-c2ccncc2)c1C(=O)O have Kd under 200 µM? condition not met

API: query returns whether the molecule falls strictly under 200 µM in Kd. Query: CCN1Cc2cc(CCC(=O)NCCC(=O)N3CCC[C@@H]3c3ccccc3SC)ccc2NCCC1=O condition not met

Field: below-cutoff. Rule: recorded Kd strictly less than 200 µM. Subject: Nc1ccc(CCNC(=O)CN2C(=O)C3C4CCC(C4)C3C2=O)cc1 (configuration not stated) condition not met

Please let me know if CCN1Cc2cc(CCC(=O)NCC(=O)N3CCC[C@@H]3c3ccccc3SC)ccc2NCCC1=O shows Kd below 200 µM. condition met

Field: below-cutoff. Rule: recorded Kd strictly less than 200 µM. Subject: CSc1ccccc1[C@H]1CCCN1C(=O)CN(C)C(=O)NCc1ccc2c(c1)[C@H]1C[C@@H](N2)[C@H](O)CO1 condition met

Values compiled from ChEMBL document CHEMBL4359930.
